FYI, the data here is from PubChem BioAssay AID1159580.

Listing of entries alongside the reported normalized growth.
# assayNotes: chemical genetic growth profiling, strain panel (AID 1159580);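 further: tested at 20 µM; growth read once vehicle control cultures reached saturation at 30 °C; 1 = growth at the plate median or of vehicle wells; lower values mean less growth of the strain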
# assayContext: S. cerevisiae deletion strains, growth OD, locus YDR150W, strain NUM1, hits give low values
The whole screen tested about 5,500 compounds, of which about 2,000 (36%) were called active. Another 18% or so got no clear call; they are omitted. The list shows a part of the results.
measuredEndpoint: normalized growth

{"compound": "Cc1cc(NC(=O)C(Cl)(Cl)Cl)n(-c2ccccc2)n1", "quantitativeResult": 0.898}
{"compound": "O=C(O)C1c2ccccc2Oc2ccccc21", "quantitativeResult": 0.962}
{"compound": "OCC(O)Cc1ccc2c(c1)OCO2 (stereo unspecified)", "quantitativeResult": 1.02}
{"compound": "CC(=O)Nc1cccc(-n2nnc(SCc3ccccc3)n2)c1", "quantitativeResult": 1.03}
{"compound": "C[C@@H]1O[C@@H](O[C@H]2[C@@H](Oc3cc(O)c4c(c3)O[C@H](c3ccc(O)cc3)CC4=O)O[C@H](CO)[C@@H](O)[C@@H]2O)[C@H](O)[C@H](O)[C@H]1O", "quantitativeResult": 0.977}
{"compound": "C[N+](C)(C)CC(=O)[O-]", "quantitativeResult": 0.981}
{"compound": "COc1ccc2c(c1)C1(C)CCC(=O)CC1CC2 (stereo unspecified)", "quantitativeResult": 0.991}
{"compound": "CC1(O)/C=C/C=C(\\CO)C2CC(C)(C)C2(O)CC1 (stereo unspecified)", "quantitativeResult": 1.02}
{"compound": "CCOC(=O)COc1ccc2c(c1)OC(C)(C)CC2=O", "quantitativeResult": 0.872}
{"compound": "O=C1C[C@@H](c2ccccc2)Oc2cc(O)cc(O)c21", "quantitativeResult": 0.949}
{"compound": "Ic1ccccc1CNC1C2CCN(CC2)C1C(c1ccccc1)c1ccccc1 (stereo unspecified)", "quantitativeResult": 0.996}

###

# assayNotes: chemical genetic growth profiling, strain panel (AID 1159580);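 further: tested at 20 µM; growth read once vehicle control cultures reached saturation at 30 °C; 1 = growth at the plate median or of vehicle wells; lower values mean less growth of the strain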
# assayContext: S. cerevisiae deletion strains, growth OD, locus YLR027C, strain aat2, hits give low values
The campaign covered roughly 5,500 compounds. About 2,000 (36%) were called active. Roughly 18% stayed inconclusive and do not appear here. This is one part of the list.

{"compound": "COc1cc2c(cc1OC)C(=O)C(CC1CCN(Cc3ccccc3)CC1)C2 (configuration not stated)", "normalized growth": 0.963}
{"compound": "COc1ccc(-c2coc3c(O)c(OC)ccc3c2=O)cc1", "normalized growth": 0.964}
{"compound": "COc1cc(OC)c2c(c1)O[C@H](c1ccc(OC)c(OC)c1)[C@@H](O)C2", "normalized growth": 0.994}
{"compound": "CC(C)CC1C(=O)N2CCC[C@H]2C2(O)O[C@](NC(=O)C3C=C4c5cccc6[nH]c(Br)c(c56)C[C@H]4N(C)C3)(C(C)C)C(=O)N12 (some centres not stated)", "normalized growth": 0.977}
{"compound": "COc1c2c(c(CC=C(C)C)c3oc(=O)c(-c4ccc(O)cc4)c(O)c13)OC(C)(C)C=C2", "normalized growth": 0.72}
{"compound": "O=C(Cc1ccccc1)NO", "normalized growth": 0.973}
{"compound": "Cn1cc[nH]c1=S", "normalized growth": 0.991}
{"compound": "OCC(O)Cc1ccc2c(c1)OCO2 (configuration not stated)", "normalized growth": 0.976}
{"compound": "C[CH2][Hg][S]c1ccccc1C(=O)O", "normalized growth": 0.0538}
{"compound": "CN=C(NC#N)NCCSCc1nc(N=C(N)N)cs1", "normalized growth": 0.984}
{"compound": "COc1ccc(-c2coc3c(OC)c(OC)cc(O)c3c2=O)cc1", "normalized growth": 1}
{"compound": "COC1C(O)C(O)C(O)[C@@H](O)C1O (some centres not stated)", "normalized growth": 0.969}
{"compound": "COc1ccc(-c2cc(=O)c3c(O)cc(OC)c(OC)c3o2)c(OC)c1", "normalized growth": 0.996}
{"compound": "COc1cccc([C@]2(O)CCCC[C@H]2CN(C)C)c1", "normalized growth": 0.944}
{"compound": "C[C@@H](N)CO", "normalized growth": 0.999}
{"compound": "CCCCCCCCCCCCCCCCOP(=O)([O-])OCC[N+](C)(C)C", "normalized growth": 0.0551}
{"compound": "CCCCCCCC/C=C/CCCCCCCCOP(=O)([O-])OCC[N+](C)(C)C", "normalized growth": 0.0482}
{"compound": "CC[C@H]1OC(=O)C[C@@H](O)[C@H](C)[C@@H](O[C@@H]2O[C@H](C)[C@@H](O[C@H]3C[C@@](C)(O)[C@@H](O)[C@H](C)O3)[C@H](N(C)C)[C@H]2O)[C@@H](CC=O)C[C@@H](C)C(=O)/C=C/C(C)=C/[C@@H]1CO[C@@H]1O[C@H](C)[C@@H](O)[C@@H](OC)[C@H]1OC", "normalized growth": 0.998}
{"compound": "CC(C)N(C(=O)CCl)c1ccccc1", "normalized growth": 1.01}
{"compound": "COc1ccc2c(c1)OC[C@@H](Cc1ccc(OC)c(OC)c1)[C@H]2O", "normalized growth": 1.01}
{"compound": "CCC1(c2ccccc2)C(=O)NCNC1=O", "normalized growth": 1.01}
{"compound": "C=CCc1ccc2c(c1)OCO2", "normalized growth": 1}
